The following variants are shown together with reported denaturant m value values.
B1: Ribonuclease, P00648 (parent)
chain: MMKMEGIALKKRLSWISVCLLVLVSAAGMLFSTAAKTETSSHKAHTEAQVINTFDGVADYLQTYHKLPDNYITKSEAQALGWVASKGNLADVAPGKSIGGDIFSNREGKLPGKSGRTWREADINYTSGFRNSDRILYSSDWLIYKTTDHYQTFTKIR

- Variants of: B1
- Test parameters: Bacillus amyloliquefaciens; pH 6.3; 25 °C; Urea; Fluorescence; MES-NaOH 450 mM; reversible: yes; structure 1BNI; whole UniProt chain shown
// note: answer is a bare numeric in kcal/mol/M

INSERT INTO results (sequence_change, value_kind, assay_value) VALUES
  ('T152V', 'denaturant m value', 1.95),
  ('Q78S', 'denaturant m value', 2),
  ('I51V', 'denaturant m value', 1.88);

Now for another entry.
Q) Give me measured denaturant m value, please, for this variant: Y150F
A) 1.89
